# System: J774
# test method notes: Cytotoxicity against J774.1 cell line after 48 hrs
# Type: functional, cell-based
# test conditions: Mus musculus, J774, 48 h
pIC50: −log10 of the molar value.
Each item that follows carries a reported pIC50.

The examples below pair each entry with its known result.
- compound: "CCOC(=O)[C@@H]1[C@@H](C(=O)OCC)N1C(=O)[C@@H]1CN1C(=O)[C@H](CC(C)C)NC(=O)OC(C)(C)C"
  measured on: "J774"
  experimental result: 4.30
- compound: "CC(C)(C)OC(=O)NCC(=O)N1CCC[C@@H](C(=O)N2[C@H](C(=O)OCc3ccccc3)[C@H]2C(=O)OCc2ccccc2)C1"
  measured on: "J774"
  experimental result: "< 4.00"
- compound: "CC(C)(C)OC(=O)NCC(=O)N1CCC[C@@H]1C(=O)N1[C@H](C(=O)O)[C@H]1C(=O)O"
  measured on: "J774"
  experimental result: "< 4.00"
- compound: "CC(C)C[C@H](NC(=O)OC(C)(C)C)C(=O)N1CCC[C@H](C(=O)N2[C@H](C(=O)OCc3ccccc3)[C@H]2C(=O)OCc2ccccc2)C1"
  measured on: "J774"
  experimental result: "< 4.00"
- compound: "CC(C)C[C@@H](NC(=O)OC(C)(C)C)C(=O)N1CCC[C@@H](C(=O)N2[C@H](C(=O)OCc3ccccc3)[C@H]2C(=O)OCc2ccccc2)C1"
  measured on: "J774"
  experimental result: "< 4.00"

pIC50 lookup needed for "CCOC(=O)[C@H]1[C@H](C(=O)OCC)N1C(=O)[C@H]1CCCN(C(=O)[C@H](CC(C)C)NC(=O)OC(C)(C)C)C1" , thanks.
< 4.00

Query "CC(C)C[C@H](NC(=O)OC(C)(C)C)C(=O)N1CCC[C@@H]1C(=O)N1[C@H](C(=O)OCc2ccccc2)[C@H]1C(=O)OCc1ccccc1" next
< 4.00

====

Each item that follows carries a reported IC50.
# System: J774
# test method notes: Cytotoxicity against J774.1 cell line after 48 hrs
# Assay type: functional, cell-based
# test conditions: Mus musculus, J774, 48 h

The examples below pair each entry with its known result.
- compound: "Cl.NCCCC(N)(C(=O)O)C(F)F.O (centres undefined) [EFLORNITHINE HYDROCHLORIDE]"
  IC50: "> 1000 µM"
- compound: "CC1CS(=O)(=O)CCN1/N=C/c1ccc([N+](=O)[O-])o1 (centres undefined)"
  IC50: "> 200 µM"
- compound: "CC(C)(C)OC(=O)NCC(=O)N1CCC[C@H]1C(=O)N1[C@H](C(=O)O)[C@H]1C(=O)O"
  IC50: "> 100 µM"

Please turn your attention to the following entry.
IC50 lookup needed for "CCOC(=O)[C@H]1[C@H](C(=O)OCC)N1C(=O)C1CCN(C(=O)[C@H](CC(C)C)NC(=O)OC(C)(C)C)CC1" , thanks.
> 100 µM

====

Each item that follows carries a reported inhibition.
# measured on: Rhodesain (Trypanosoma brucei rhodesiense) (UniProt Q95PM0)
# Sequence (Q95PM0 1-450): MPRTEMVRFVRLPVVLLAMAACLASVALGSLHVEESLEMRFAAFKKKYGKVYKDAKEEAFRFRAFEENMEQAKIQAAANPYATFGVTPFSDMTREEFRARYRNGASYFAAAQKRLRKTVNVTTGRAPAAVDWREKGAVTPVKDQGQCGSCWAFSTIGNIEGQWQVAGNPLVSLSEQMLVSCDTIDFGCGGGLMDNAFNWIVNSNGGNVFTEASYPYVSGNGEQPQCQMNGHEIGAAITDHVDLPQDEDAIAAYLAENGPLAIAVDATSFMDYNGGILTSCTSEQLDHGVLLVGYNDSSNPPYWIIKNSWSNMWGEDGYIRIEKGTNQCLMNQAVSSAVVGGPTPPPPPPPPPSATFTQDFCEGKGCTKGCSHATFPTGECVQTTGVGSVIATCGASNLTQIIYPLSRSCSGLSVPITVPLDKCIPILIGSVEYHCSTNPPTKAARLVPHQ
# test method notes: Inhibition of Trypanosoma brucei rhodesiense rhodesain at 200 uM
Please state the figure in %; there is no need to write the unit.

The examples below pair each entry with its known result.
- molecule: "Nc1nc(N)nc(Nc2ccc([As]3SCC(CO)S3)cc2)n1 (centres undefined)"
  inhibition (%): 94.3
- molecule: "Cl.NCCCC(N)(C(=O)O)C(F)F.O (centres undefined) [EFLORNITHINE HYDROCHLORIDE]"
  inhibition (%): 30.7
- molecule: "N=C(N)c1ccc(OCCCCCOc2ccc(C(=N)N)cc2)cc1.O=S(=O)(O)CCO.O=S(=O)(O)CCO [PENTAMIDINE ISETHIONATE]"
  inhibition (%): 27.9

Please turn your attention to the following entry.
For Rhodesain (Trypanosoma brucei rhodesiense) (UniProt Q95PM0), provide inhibition of Cc1ccc(C(=O)Nc2ccc(S(=O)(=O)[O-])c3cc(S(=O)(=O)[O-])cc(S(=O)(=O)[O-])c23)cc1NC(=O)c1cccc(NC(=O)Nc2cccc(C(=O)Nc3cc(C(=O)Nc4ccc(S(=O)(=O)[O-])c5cc(S(=O)(=O)[O-])cc(S(=O)(=O)[O-])c45)ccc3C)c2)c1.[Na+].[Na+].[Na+].[Na+].[Na+].[Na+] [SURAMIN HEXASODIUM] please.
31.5
